Every entry's value here was drawn from PubChem BioAssay (NCI).

System: SNB-75 CNS
Assay Protocol: NCI tumour cell line growth inhibition, 48 h
Readout: TGI

CCOCCc1c(O)nc(SC)[nH]c1=O :: > 100 µM
CC(C)(C)c1ccc(-c2nc3ccccc3c(=O)o2)cc1 :: 95.2 µM
C/C(=N\Nc1ccc2ccccc2n1)c1ccccc1O :: 24.7 µM
Cc1nc2c(=O)[nH]c3ccccc3c2o1 :: > 100 µM
CN(CCCCCl)P(=O)(OCc1ccc([N+](=O)[O-])o1)C(F)(F)c1ccc(CC(=O)N[C@@H](CC(=O)O)C(=O)N[C@@H](Cc2ccc(C(F)(F)P(=O)(OCc3ccc([N+](=O)[O-])o3)N(C)CCCCCl)cc2)C(N)=O)cc1 (some centres undefined) :: 91.9 µM
Nc1nc(=O)n(C2CC(O)C(O)C(CO)O2)cc1F (centres undefined) :: > 100 µM
Oc1ccc2ccccc2c1-c1c(Nc2ccccc2)ccc2ccccc12 :: 31.9 µM
CCCCCCCCCCCC1=NC(C)(C)CN1CCO :: 21.6 µM
C[N+](C)(C)CCC(=O)N1C/C(=C\c2ccccc2)C(=O)/C(=C/c2ccccc2)C1 :: 24.3 µM
Cn1c(=O)nc2n(CCO)ccnc-2c1=O :: > 100 µM

Fill in TGI for COc1ccc(N2C(=O)CSC2c2cc3cc(Br)ccc3nc2Cl)cc1 (centres undefined) tested with SNB-75 CNS. > 50 µM

Fill in TGI for OC(c1ccsc1)c1cc2ccccc2s1 (centres undefined) tested with SNB-75 CNS. > 10 µM

Fill in TGI for `CCCCOP(=O)(OCCCC)/C(C#N)=C/c1ccc(C)o1` tested with SNB-75 CNS. > 100 µM

Fill in TGI for `Cc1ccc(S(=O)(=O)NC(=O)C2(Br)S(=O)(=O)OCCOS2(=O)=O)cc1` tested with SNB-75 CNS. > 100 µM
